From: PubChem BioAssay

Assay Details: splicing luciferase reporter signal modulators, primary screen, spliceosome inhibition project, cell-based, HEK293, splice +/- reporter (AID 1101);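 further: HEK293 cells carrying a splicing-competent luciferase reporter gene; test concentration not given here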
Assay Setup: luminescence, 24 h, higher = more signal, called active from +8 up or from −8 down
Result Type: z-score

Molecule	Result Type	Number
CC(C)[Si](C#C[Si](C(C)C)(C(C)C)C(C)C)(O[C@H](C)c1cn([C@H](C)c2ccccc2)nn1)C(C)C	z-score	-1.8
O=C(NCc1ccccc1)[C@@H]1c2ccccc2C(=O)N(Cc2ccccc2Cl)[C@H]1c1ccc(CO)cc1	z-score	-1.05
C=CCN1C(=O)[C@]2(O[C@H](CCn3cc([C@H](O)c4ccccc4)nn3)[C@@H]([Si](C)(C)c3ccc(OC)cc3)[C@@H]2C)c2cc(N3CCOC3=O)ccc21	z-score	-2.35
C=CCC(OC(C)=O)[C@@H]1[C@@H](N(Cc2ccc(-c3cccc(C(F)(F)F)c3)o2)C(=O)c2ccc(-c3ccccc3)cc2)c2cc(OCCCO)ccc2N1C(=O)Cc1ccc(OC)cc1 (some centres not stated)	z-score	-1.07
C=CCNC(=O)[C@@H]1[C@H]2C(=O)O[C@H](c3ccccc3)[C@H](c3ccccc3)N2[C@H](c2ccc(O)cc2)[C@@]12C(=O)N(C(=O)OCCOC)c1ccc(C#Cc3ccc(OC)cc3)cc12	z-score	-1.16
C=CCC1(CC=C)C[C@H]2CO[C@H](c3ccc(OC)cc3)N2C1=O	z-score	-0.512
NCCCCCCNC(=O)[C@@H]1C[C@@H]2C(=O)N[C@@H](Cc3ccccc3)C(=O)N2[C@@H]1c1ccc(O)cc1	z-score	-0.573
